biological target: AT2R (Rattus norvegicus (Rat), UniProt P35351); assay: AT2R ex vivo autoradiography receptor occupancy in rat adrenal sections after oral dosing; design: species or system Sprague Dawley rats; details: rat adrenal, oral dose 3 mg/kg; read-out: % RO
Sequence (P35351 whole entry): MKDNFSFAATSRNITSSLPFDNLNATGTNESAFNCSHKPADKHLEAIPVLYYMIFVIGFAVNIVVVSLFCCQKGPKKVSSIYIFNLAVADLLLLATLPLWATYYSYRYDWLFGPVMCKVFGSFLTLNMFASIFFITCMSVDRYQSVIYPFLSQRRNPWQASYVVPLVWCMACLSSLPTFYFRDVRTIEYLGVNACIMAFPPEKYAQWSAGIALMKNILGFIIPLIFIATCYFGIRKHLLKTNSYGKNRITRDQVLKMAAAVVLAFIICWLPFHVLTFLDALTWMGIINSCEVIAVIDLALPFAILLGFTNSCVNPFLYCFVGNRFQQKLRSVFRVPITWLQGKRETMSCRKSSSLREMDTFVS
OBSERVED PROPERTY: receptor occupancy at 3 mg/kg (%)

P: CCCCCN(C)C(=O)N1CCC(CC(=O)N(c2ccccc2)c2ccccc2)(C(=O)O)CC1 [Example 1]
Q: CN(C(=O)N1CCC(CC(=O)N(c2ccccc2)c2ccc(F)cc2)(C(=O)O)CC1)c1ccc(F)cc1 [compound 30]
In: For the pair P and Q , which entry has the numerically smaller recorded receptor occupancy at 3 mg/kg? Refer to your chosen entry by its label in the reply.
Out: P
(P: 23.4%, Q: 88.7%)
